I'd be grateful if you could share measured normalized growth for these entries.
Assay Comment: chemical genetic growth profiling, strain panel (AID 1159580);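 also: tested at 20 µM; growth read once vehicle control cultures reached saturation at 30 °C; 1 = growth at the plate median or of vehicle wells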
Test Conditions: S. cerevisiae deletion strains, growth OD, locus YJL187C, strain SWE1 (second series), hits give low values
Hit rate of the full screen: of about 5,500 compounds, about 2,000 (36%) were called active. Not shown: some 18% with an inconclusive outcome. This is one part of the list.
Give the value as a plain number.

Task item: Fill blank: measured normalized growth of the compound CC(C)[C@@H]1CC[C@@H](C)C[C@H]1OC(=O)c1ccccc1 is ____.
Reply: 1

Task item: For Cn1c(=O)[nH]c2ncn(C)c2c1=O then?
Reply: 1.01

Task item: For C[C@]12CC[C@@H](O)C[C@H]1CCc1ccccc12 then?
Reply: 1

Task item: For O=C(Nc1ccc([N+](=O)[O-])cc1Cl)c1cc(Cl)ccc1O then?
Reply: 0.903

Task item: For OC[C@H]1O[C@@H](Oc2ccc(O)cc2)[C@H](O)[C@@H](O)[C@@H]1O then?
Reply: 1.03

====

Assay Comment: chemical genetic growth profiling, strain panel (AID 1159580)
Test Conditions: S. cerevisiae deletion strains, growth OD, locus YOR270C, strain vph1, hits give low values
Screen size: about 5,500 compounds; about 2,000 (36%) were called active. About 18% were inconclusive and are not listed. The list shows a part of the results.
Lab note - cut at 0.9 for normalized growth: Y if strictly below, N if not.

Task item: Report whether reported normalized growth is lower than 0.9 (strictly) for O=c1c(O)c(-c2ccccc2)oc2cc(O)ccc12
Reply: Y

Task item: For C[N+]12CCC(CC1)C(OC(=O)C(O)(c1ccccc1)c1ccccc1)C2 (stereo unspecified) then?
Reply: N

Task item: For CC(=O)c1ccc[nH]1 then?
Reply: N

Task item: For O=c1c(O)c(-c2ccccc2)oc2ccccc12 then?
Reply: Y

Task item: For CC(C)c1cc2c(c(O)c1O)[C@@]1(C(=O)O)CCCC(C)(C)C1CC2 (stereo partly specified) then?
Reply: N

====

Assay Comment: chemical genetic growth profiling, strain panel (AID 1159580)
Test Conditions: S. cerevisiae deletion strains, growth OD, locus YOL147C, strain pex11
Screen size: about 5,500 compounds; about 2,000 (36%) were called active. Not shown: some 18% with an inconclusive outcome. Cut-off read from the data, not from the text of the source: active = normalized growth mostly below about 0.91 (no sharp cut-off); inconclusive = no clear call, values can overlap the other calls; inactive = mostly above about 0.92. The list shows a part of the results.
Answer with one of the outcomes active, inactive

Task item: Could you please tell me the result logged for COC1=CC23CCCN2CCc2cc4c(cc2C3C1O)OCO4 (centres undefined) in this assay?
Reply: inactive

Task item: For Cn1c(=O)c2c(ncn2C)n(C)c1=O then?
Reply: inactive

Task item: For Cn1c(=O)c2c(ncn2CCO)n(C)c1=O then?
Reply: inactive

Task item: For CC(=O)CCCCn1c(=O)c2c(ncn2C)n(C)c1=O then?
Reply: inactive

Task item: For COc1ccc(CC(=O)c2ccc(O)cc2O)cc1 then?
Reply: active

Task item: For Cn1c(=O)[nH]c2nc[nH]c2c1=O then?
Reply: inactive

Task item: For CC1=C(C(=O)O)N2C(=O)[C@@H](NC(=O)[C@@H](N)c3ccc(O)cc3)[C@H]2SC1 then?
Reply: inactive

Task item: For CC(C)c1cc2c(c(O)c1O)[C@@]1(C(=O)O)CCCC(C)(C)C1CC2 (some centres undefined) then?
Reply: inactive

Task item: For C[N+]12CCC(CC1)C(OC(=O)C(O)(c1ccccc1)c1ccccc1)C2 (centres undefined) then?
Reply: inactive

Task item: For O=c1c(O)c(-c2ccccc2)oc2ccccc12 then?
Reply: inactive

Task item: For C=C(C)C1Cc2c(ccc(C(=O)O)c2O)O1 (centres undefined) then?
Reply: inactive

Task item: For Cn1c(=O)[nH]c2ncn(C)c2c1=O then?
Reply: inactive

Task item: For O=C(O)CC[N+](=O)[O-] then?
Reply: inactive

Task item: For C=C(C)C1Cc2c(ccc3c(=O)c4c(oc23)COc2cc(OC)c(OC)cc2-4)O1 (centres undefined) then?
Reply: inactive

====

I'd be grateful if you could share measured normalized growth for these entries.
Assay Comment: chemical genetic growth profiling, strain panel (AID 1159580);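 also: tested at 20 µM; growth read once vehicle control cultures reached saturation at 30 °C; 1 = growth at the plate median or of vehicle wells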
Test Conditions: S. cerevisiae deletion strains, growth OD, locus YNL209W, strain ssb2, hits give low values
The whole screen tested about 5,500 compounds, of which about 2,000 (36%) were called active. Not shown: some 18% with an inconclusive outcome. The list shows a part of the results.
Give the value as a plain number.

Task item: Fill blank: measured normalized growth of the compound CC(C)C1CCC(C(=O)N[C@@H](Cc2ccccc2)C(=O)O)CC1 (some centres not stated) is ____.
Reply: 0.963

Task item: For O=C1c2ccccc2C(=O)c2ccccc21 then?
Reply: 0.978

Task item: For OC[C@H]1O[C@@H](Oc2ccc(O)cc2)[C@H](O)[C@@H](O)[C@@H]1O then?
Reply: 1.02

Task item: For CC(=O)OC1CCC2(O)CC1(C)CCC1C2CC1(C)C (configuration not stated) then?
Reply: 1.01

Task item: For CC[C@H]1OC(=O)[C@H](C)[C@@H](O[C@H]2C[C@@](C)(OC)[C@@H](O)[C@H](C)O2)[C@H](C)[C@@H](O[C@@H]2O[C@H](C)C[C@H](N(C)C)[C@H]2O)[C@](C)(O)C[C@@H](C)/C(=N/OCOCCOC)[C@H](C)[C@@H](O)[C@]1(C)O then?
Reply: 1.01

Task item: For O=C(Nc1ccc([N+](=O)[O-])cc1Cl)c1cc(Cl)ccc1O then?
Reply: 0.925

Task item: For C[N+]12CCC(CC1)C(OC(=O)C(O)(c1ccccc1)c1ccccc1)C2 (configuration not stated) then?
Reply: 0.978

Task item: For CC(=O)NC1C(O)OC(COS(=O)(=O)O)C(OC2OC(C(=O)O)C(OC3OC(CO)C(OC4OC(C(=O)O)C(O)C(O)C4OS(=O)(=O)O)C(OS(=O)(=O)O)C3NS(=O)(=O)O)C(O)C2OS(=O)(=O)O)C1O (configuration not stated) then?
Reply: 0.975

Task item: For COC1=CC23CCCN2CCc2cc4c(cc2C3C1O)OCO4 (configuration not stated) then?
Reply: 1.02

Task item: For CC(NC(C)(C)C)C(=O)c1cccc(Cl)c1 (configuration not stated) then?
Reply: 1.01

Task item: For O=c1c(O)cccc2cc(O)c(O)c(O)c12 then?
Reply: 0.398

Task item: For O=c1c(O)c(-c2ccccc2)oc2ccccc12 then?
Reply: 0.159

Task item: For Cn1c(=O)c2c(ncn2C)n(C)c1=O then?
Reply: 0.959

Task item: For O=C1c2cccc(O)c2C(=O)c2c(O)cccc21 then?
Reply: 0.879

Task item: For CC1(C)CC23C(=O)CCC(O)C2(C)CCC13 (configuration not stated) then?
Reply: 0.988

Task item: For O=C(c1ccccc1)c1ccc2n1CCC2C(=O)O (configuration not stated) then?
Reply: 0.985

Task item: For CNC(=O)Oc1ccccc1OC(C)C then?
Reply: 0.994

====

Assay Comment: chemical genetic growth profiling, strain panel (AID 1159580);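 also: tested at 20 µM; growth read once vehicle control cultures reached saturation at 30 °C; 1 = growth at the plate median or of vehicle wells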
Test Conditions: S. cerevisiae deletion strains, growth OD, locus YPL051W, strain arl3, hits give low values
Among all 5,500 compounds or so, about 2,000 (36%) were called active. Inconclusive results (about 18%) are left out. This is one part of the list.
Lab note - cut at 0.7 for normalized growth: label 1 if strictly below, label 0 if not.

Task item: Report whether reported normalized growth is lower than 0.7 (strictly) for CCCC(=O)Nc1ccc(OCC(O)CNC(C)C)c(C(C)=O)c1 (centres undefined)
Reply: label 0

Task item: For O=c1c(O)c(-c2ccc(O)cc2)oc2ccccc12 then?
Reply: label 1

Task item: For O=C1C=CC(=O)c2ccccc21 then?
Reply: label 1

Task item: For O=C(Nc1ccc([N+](=O)[O-])cc1Cl)c1cc(Cl)ccc1O then?
Reply: label 1

Task item: For CC(=O)c1c(O)cc(O)cc1O then?
Reply: label 0

Task item: For CC(C)N1C(=O)c2ccccc2NS1(=O)=O then?
Reply: label 0

Task item: For O=c1c(O)c(-c2ccccc2)oc2ccc3occc3c12 then?
Reply: label 0

Task item: For CCCCCC/C=C\CCCCCCCc1cccc(O)c1C(=O)O then?
Reply: label 0

Task item: For CC(=O)OCC1=C(C(=O)O)N2C(=O)[C@@H](NC(=O)CSc3ccncc3)[C@H]2SC1 then?
Reply: label 0

====

Assay Comment: chemical genetic growth profiling, strain panel (AID 1159580);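 also: tested at 20 µM; growth read once vehicle control cultures reached saturation at 30 °C; 1 = growth at the plate median or of vehicle wells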
Test Conditions: S. cerevisiae deletion strains, growth OD, locus YLR085C, strain ARP6
The whole screen tested about 5,500 compounds, of which about 2,000 (36%) were called active. About 18% were inconclusive and are not listed. No stated cut-off is given here; in the data, active means normalized growth mostly below about 0.91 (no sharp cut-off); inconclusive means no clear call, values can overlap the other calls; inactive means mostly above about 0.92. Some of the results follow.
Answer with one of the outcomes active, inactive

Task item: Could you please tell me the result logged for O=C(OCCNc1ccc([N+](=O)[O-])cn1)c1ccc([N+](=O)[O-])o1 in this assay?
Reply: active

Task item: For Cc1cc(Oc2c([N+](=O)[O-])cc(C(F)(F)F)cc2[N+](=O)[O-])c2c(Cl)ccc(C)c2n1 then?
Reply: active

Task item: For O=[N+]([O-])c1ccc(NCCCCCO)nc1 then?
Reply: inactive

Task item: For Nc1ccc(Sc2cc(Cl)ccc2Cl)nc1 then?
Reply: active

Task item: For Cc1cc2c(cc1C)CSC(C)(c1ccc(F)cc1)SC2 then?
Reply: inactive
